Entry source: patent US20250011331A1

Below are IC50 values measured for HPK1 (Homo sapiens, UniProt Q92918).

C[C@H](OC1CCOCC1)c1ccc(Nc2ccc(-c3cnc4cc(F)ccn34)c3c2C(=O)NC3)nc1CN(C)C (single isomer, unassigned) ... ≤ 100 nM
CN1CCCC1c1nc(Nc2ccc(-c3cnc4cc(F)ccn34)c3c2C(=O)NC3)ccc1C1CCOC1 (stereo not shown) ... 100 to 1000 nM

Test system HPK1 (Homo sapiens, UniProt Q92918); read-out IC50; what value for CN(C)Cc1nc(Nc2ccc(-c3cnc4cc(F)ccn34)c3c2C(=O)NC3)ccc1OC1CC2(COC2)C1 ?
≤ 100 nM

What do we get for CN(C)Cc1nc(Nc2ccc(-c3cnc4cc(F)ccn34)c3c2C(=O)NC3)ccc1C(C)(C)N1CCOCC1=O ?
≤ 100 nM
